Source: paper PMC3338619

target: T1, Human Phosphatidylethanolamine binding protein 1 (hPEBP1) (human, UniProt P30086 1-187); assay: native MS; hPEBP1 incubated with a range of peptide concentrations, bound protein fraction measured by ESI-MS; ammonium bicarbonate (ABC), pH 7.4, 25°C; details: both partners purified
T1 construct: the NMR assignment counts 187 residues in all, from Met1 to Lys187; The NMR samples were uniformly 15N-labelled; also called RKIP; source: E. coli BL21 (DE3), pET31b, purified (anion exchange, cation exchange); 15N-labelled for NMR, non-labelled recombinant for mass spectrometry
T1 sequence (P30086 whole entry): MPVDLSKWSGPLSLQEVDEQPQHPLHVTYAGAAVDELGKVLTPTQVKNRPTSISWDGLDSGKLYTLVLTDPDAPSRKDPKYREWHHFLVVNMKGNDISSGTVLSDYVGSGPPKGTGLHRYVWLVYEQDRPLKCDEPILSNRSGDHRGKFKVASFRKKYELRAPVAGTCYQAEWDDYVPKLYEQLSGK
Square brackets hold non-standard residues; d marks the D form. Ends that are not written are not given here. pY = N[C@@H](Cc1ccc(OP(=O)(O)O)cc1)C(=O)O; pS = N[C@@H](COP(=O)(O)O)C(=O)O
PARAMETER MEASURED: Kd

[[record]]
binder = "RPRGQRD[pS][pS]Y[pY]WEIEASEV (Raf-1 N-region, residues 331-349; three phospho-amino acids at Ser338, Ser339 and Tyr341; also called 3P; Raf-1 peptide; Raf-1 peptide in tri-phosphorylated form; source: synthetic peptide (solid-phase, Fmoc strategy)) [tri-phosphorylated Raf-1 peptide (residues 331-349)]"
parameter_measured = "Kd"
result = "11 µM"

